system: Zymoseptoria tritici (SEPTTR-184); test: Cyp51 dsRNA tile (fragment) foliar application bioassay (Example 6); type: in vivo; details: 1 day protectant; calculated from disease control
Measured Property: ED80 (ppm) SEPTTR-184 1DP

Required: ED80 (ppm) SEPTTR-184 1DP, one value per molecule below.
1. MgCyp51-T1: dsRNA tile of Zymoseptoria tritici Cyp51, 232 bp, location 166-397 (nucleic acid, listed as Zymoseptoria tritici) GTATTCCACTGGGTGCCCTTCATCGGAAGCACCATCACATACGGCATCGACCCATACAAGTTCTTCTTCTCCTGTCGGGAAAAGTATGGAGATGTCTTTACATTCATCCTGCTGGGAAAGAAGACGACGGTGTGCTTGGGCACCAAGGGCAATGATTTTATTTTGAATGGAAAACTGAAGGACGTCAACGCGGAGGAGATATACAGCCCGCTGACCACTCCTGTCTTTGGCA
2. MgCyp51-T6: dsRNA tile of Zymoseptoria tritici Cyp51, 280 bp, location 881-1160 (nucleic acid, listed as Zymoseptoria tritici) ATGCCATTCCCGACAAGGAGATTGCTCATATGATGATTGCGCTGCTCATGGCCGGCCAGCACTCTTCATCTGCGACCGAGTCCTGGATCACTCTCCGCCTCGCATCCCGCCCCGACATCCAAGACGAACTCCTCCAAGAACAAAAGGATATGCTCGGTGTGAACGCCGACGGCAGTATCAAGGAGCTCACATACGCCAACCTCTCGAAACTCACCCTCCTCAATCAAGTCGTCAAAGAAACCCTTCGTATTCACGCTCCAATCCACTCCATTCTGCGCAA

Result:
[">200 ppm", ">200 ppm"]
